Target: T1, 4H2673-bN
T1 chain: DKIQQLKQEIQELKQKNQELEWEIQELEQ
Assay: two-hybrid library CCNG1;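 also: natural log of median RNA to DNA barcode read ratio; higher means stronger binding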
recordedMetric: interaction score
Lab note: write the figure by itself, no unit.

DENQQLKQKIQELEQKIQELEWKNQELEQ [4H1831-bN]    -0.269

# interaction score lookup, item DKIQQLKQEIQELEQENQELKWEIQELKQ [4H2586-bN]
-1.47

# interaction score lookup, item DKIQQLKQEIQELKQKNQELEWEIQELEQ [4H2673-bN]
0.657

# interaction score lookup, item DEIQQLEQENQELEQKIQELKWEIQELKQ [4H170-bN]
-0.742

# interaction score lookup, item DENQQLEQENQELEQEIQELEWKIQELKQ [4H1158-bN]
-1.07

# interaction score lookup, item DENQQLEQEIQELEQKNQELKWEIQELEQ [4H1081-bN]
-0.316

# interaction score lookup, item DKIQQLKQEIQELKQEIQELEWENQELEQ [4H2627-bN]
-0.336

# interaction score lookup, item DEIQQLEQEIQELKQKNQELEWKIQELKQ [4H118-bN]
1.25

# interaction score lookup, item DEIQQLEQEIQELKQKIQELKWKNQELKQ [4H112-bN]
0.592
